Values compiled from patent US7888383B2.

Target: CRTh2 receptor in CHO.K1-CRTh2 cells (Homo sapiens, UniProt Q9Y5Y4)
Sequence (Q9Y5Y4 whole entry): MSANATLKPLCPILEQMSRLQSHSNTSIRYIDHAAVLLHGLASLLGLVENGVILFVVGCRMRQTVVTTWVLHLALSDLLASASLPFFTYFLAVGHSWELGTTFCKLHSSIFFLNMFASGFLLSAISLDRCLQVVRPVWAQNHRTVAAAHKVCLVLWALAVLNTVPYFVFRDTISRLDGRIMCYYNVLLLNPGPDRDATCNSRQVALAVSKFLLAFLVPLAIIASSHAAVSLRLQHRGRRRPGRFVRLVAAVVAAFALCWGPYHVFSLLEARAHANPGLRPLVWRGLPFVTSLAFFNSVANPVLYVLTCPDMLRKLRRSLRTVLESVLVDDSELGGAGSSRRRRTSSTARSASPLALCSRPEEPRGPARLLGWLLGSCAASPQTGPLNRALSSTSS
Assay: CRTH2 cAMP functional assay
Conditions: inhibition of PGD2-mediated attenuation of forskolin-induced cAMP accumulation in CHO.K1-CRTh2 cells
pIC50: −log10 of the molar value.
assay-metric: pIC50

Cc1c(CC(=O)O)c2cc(F)ccc2n1Cc1ccc(S(=O)(=O)N2CCCC2)cc1
7.00

A: Cc1c(CC(=O)O)c2cc(F)ccc2n1Cc1ccc(S(C)(=O)=O)cc1C(F)(F)F
B: Cc1c(CC(=O)O)c2cc(F)ccc2n1Cc1ccc(S(=O)(=O)N(C)C2CCCCC2)cc1
**Q:** I'd appreciate it if you could identify which of A and B has the greater pIC50. # reply format: chosen label
**A:** B
(B: 7.48, A: 7.14)
